pIC50 values for the molecules below.
subjectOfTest: SOS1:KRAS (G12C) interaction (Homo sapiens (Human))
Sequence (Q07889 564-1049, stated change not applied): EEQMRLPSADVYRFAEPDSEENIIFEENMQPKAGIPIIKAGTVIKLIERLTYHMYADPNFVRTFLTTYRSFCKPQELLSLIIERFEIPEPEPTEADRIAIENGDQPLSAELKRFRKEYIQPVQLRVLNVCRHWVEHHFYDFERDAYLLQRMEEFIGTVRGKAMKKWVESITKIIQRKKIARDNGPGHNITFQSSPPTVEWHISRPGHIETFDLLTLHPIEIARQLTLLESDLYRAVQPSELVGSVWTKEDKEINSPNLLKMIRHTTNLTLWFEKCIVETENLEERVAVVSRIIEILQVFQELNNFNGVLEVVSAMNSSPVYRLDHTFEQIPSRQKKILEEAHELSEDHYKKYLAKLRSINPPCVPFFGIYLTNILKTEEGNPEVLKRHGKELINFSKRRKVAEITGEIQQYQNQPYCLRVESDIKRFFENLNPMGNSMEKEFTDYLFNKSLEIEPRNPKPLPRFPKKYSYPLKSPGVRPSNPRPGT
experimentDescription: SOS1 KRas(G12C) FRET Assay
studyConditions: 0.5 nM His10-SOS1 (res. 564-1049), 2.5 nM GST-KRAS G12C (res. 1-169), 2 hrs at RT
pIC50: −log10 of the molar value.

[
  {
    "molecule": "C[C@@H](NC(=O)c1cn(C2(C(F)F)CCC2)c(=O)cc1N[C@H]1[C@@H]2C[C@H]1CN(C)C2)c1cccc(C(F)F)c1F (single isomer, unassigned) [Example 253]",
    "pIC50": 7.37
  },
  {
    "molecule": "Cc1c([C@@H](C)NC(=O)c2cn(C3CCOCC3)c(=O)cc2N[C@@H]2[C@@H]3CC[C@H]2CN(C)C3)cccc1C(F)(F)F (single isomer, unassigned) [Example 31]",
    "pIC50": 7.56
  },
  {
    "molecule": "C[C@@H](NC(=O)c1cn(C2(C(F)F)CC2)c(=O)cc1N[C@@H]1C[C@H]2C[C@@H]1CN2C)c1cccc(C(F)F)c1F (single isomer, unassigned) [Example 239]",
    "pIC50": 7.67
  },
  {
    "molecule": "C[C@@H](NC(=O)c1cn(C2(C(F)F)CC2)c(=O)cc1N[C@H]1C[C@@H]2CN(C)C[C@@H]2C1)c1cccc(C(F)F)c1F [Example 125]",
    "pIC50": 7.56
  },
  {
    "molecule": "CN1C[C@@H]2[C@H](C1)[C@H]2Nc1cc(=O)n(C2(C(F)F)CC2)cc1C(=O)N[C@@H](c1cccc(C(F)F)c1F)C(F)(F)F (single isomer, unassigned) [Example 275]",
    "pIC50": 6.44
  },
  {
    "molecule": "C[C@H](NC(=O)c1cn(C2(C(F)F)CC2)c(=O)cc1N[C@H]1[C@@H]2CN(C)C[C@@H]21)c1cccc(C(F)(F)c2ccncc2)c1F [Example 175]",
    "pIC50": 7.89
  },
  {
    "molecule": "C[C@@H](NC(=O)c1cn(C2(C(F)F)CC2)c(=O)cc1N[C@@H]1CCN(C)C[C@@H]1F)c1cccc(C(F)F)c1F (single isomer, unassigned) [Example 67]",
    "pIC50": 7.97
  },
  {
    "molecule": "Cc1c([C@@H](C)NC(=O)c2cn(C3CCOCC3)c(=O)cc2NC2CCN(C)CC2(F)F)cccc1C(F)(F)F (some centres unmarked) [Example 283]",
    "pIC50": 6.86
  },
  {
    "molecule": "C[C@@H](NC(=O)c1cn(C2CC(F)(F)C2)c(=O)cc1N[C@H]1[C@@H]2CC[C@H]1CN(C)C2)c1cccc(C(F)F)c1F (single isomer, unassigned) [Example 258]",
    "pIC50": 7.12
  },
  {
    "molecule": "C[C@@H](NC(=O)c1cn([C@@H]2C[C@H]2C(F)F)c(=O)cc1N[C@H]1[C@@H]2CN(C)C[C@@H]21)c1cccc(C(F)F)c1F [Example 114]",
    "pIC50": 7.68
  },
  {
    "molecule": "COC1(CNc2cc(=O)n(C3CCOCC3)cc2C(=O)N[C@H](C)c2cccc(C(F)(F)F)c2C)CN(C)C1 [Example 29]",
    "pIC50": 7.72
  }
]
